The origin of these recorded values is ChEMBL document CHEMBL3826918.

Target: Steryl-sulfatase (Homo sapiens, UniProt P08842)
Sequence (P08842 whole entry): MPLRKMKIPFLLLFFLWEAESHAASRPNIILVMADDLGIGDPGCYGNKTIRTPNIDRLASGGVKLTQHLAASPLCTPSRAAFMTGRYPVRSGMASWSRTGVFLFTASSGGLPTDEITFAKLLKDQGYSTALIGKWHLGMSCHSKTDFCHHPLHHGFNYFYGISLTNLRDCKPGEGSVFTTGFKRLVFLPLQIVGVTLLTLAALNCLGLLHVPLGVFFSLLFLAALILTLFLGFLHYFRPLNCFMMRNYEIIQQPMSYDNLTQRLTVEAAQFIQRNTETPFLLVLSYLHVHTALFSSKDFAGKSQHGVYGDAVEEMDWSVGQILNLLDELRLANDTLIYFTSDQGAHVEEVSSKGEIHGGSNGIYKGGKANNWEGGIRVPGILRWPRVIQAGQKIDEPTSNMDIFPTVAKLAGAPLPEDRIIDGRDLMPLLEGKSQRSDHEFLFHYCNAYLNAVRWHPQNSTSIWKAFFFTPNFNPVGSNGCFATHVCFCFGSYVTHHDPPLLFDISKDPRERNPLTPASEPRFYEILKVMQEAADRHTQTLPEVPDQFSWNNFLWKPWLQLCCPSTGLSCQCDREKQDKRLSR
Experiment: Inhibition of placental sulphatase (unknown origin)
test_readout: IC50

[[record]]
compound = "NS(=O)(=O)Oc1ccc2c(c1)OC(=O)C1CCCCCCCCCCC21 (stereo unspecified)"
reading = "1 nM"


---

Tested on: MDA-MB-231
Test: cells
Settings: Homo sapiens
Description: Antiproliferative activity against human MDA-MB-231 cells
pIC50: −log10 of the molar value.
pIC50 reference
test_readout: pIC50

[[record]]
molecule_smiles = "O=C(c1ccc(OCCN2CCCCC2)cc1)c1c(-c2ccc(O)cc2)sc2cc(O)ccc12"
reading = 4.73

[[record]]
molecule_smiles = "CC/C(=C(\\c1ccccc1)c1ccc(OCCN(C)C)cc1)c1ccccc1"
reading = 4.75


---

pIC50 reference
Experiment: Cytotoxicity against human hTERT-HME1 cells assessed as reduction in cell viability by MTT assay
Type: functional, cell-based
pIC50: −log10 of the molar value.
test_readout: pIC50

[[record]]
molecule_smiles = "O=C1C=C(SCc2cc(=O)oc3cc(O)ccc23)C(=O)c2ccccc21"
test_readout = "pIC50"
reading = 4.74

[[record]]
molecule_smiles = "COc1ccc2c(CSC3=CC(=O)c4ccccc4C3=O)cc(=O)oc2c1"
test_readout = "pIC50"
reading = 4.74


---

Test: Antiproliferative activity against human PC3 cells
Format: functional, cell-based
Settings: PC-3
pIC50: −log10 of the molar value.
pIC50 reference
test_readout: pIC50

[[record]]
molecule = "O=C(c1ccc(OCCN2CCCCC2)cc1)c1c(-c2ccc(O)cc2)sc2cc(O)ccc12 [RALOXIFENE]"
test_readout = "pIC50"
reading = "< 4.40"

[[record]]
molecule = "CC/C(=C(\\c1ccccc1)c1ccc(OCCN(C)C)cc1)c1ccccc1 [TAMOXIFEN]"
test_readout = "pIC50"
reading = "< 4.40"


---

Molecular target: Aromatase (Homo sapiens, UniProt P11511)
Sequence (P11511 whole entry): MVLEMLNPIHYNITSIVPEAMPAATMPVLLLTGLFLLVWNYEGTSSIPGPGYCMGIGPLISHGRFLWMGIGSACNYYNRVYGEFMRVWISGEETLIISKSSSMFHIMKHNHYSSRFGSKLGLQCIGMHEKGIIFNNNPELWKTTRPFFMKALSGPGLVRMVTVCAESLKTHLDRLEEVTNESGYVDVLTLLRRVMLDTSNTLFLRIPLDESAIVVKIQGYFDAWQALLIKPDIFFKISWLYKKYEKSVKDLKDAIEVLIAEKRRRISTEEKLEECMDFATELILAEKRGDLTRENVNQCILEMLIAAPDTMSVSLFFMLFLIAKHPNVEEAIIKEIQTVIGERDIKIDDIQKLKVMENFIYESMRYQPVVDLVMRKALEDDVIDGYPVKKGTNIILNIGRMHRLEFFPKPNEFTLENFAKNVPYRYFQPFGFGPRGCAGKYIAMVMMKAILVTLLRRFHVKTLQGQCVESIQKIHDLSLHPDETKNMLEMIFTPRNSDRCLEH
test_readout: IC50 (µM)

[[record]]
compound = "COc1cc(C2CC(=O)Oc3cc4c(cc32)OCO4)cc(OC)c1OC(C)=O (stereo unspecified)"
test_readout = "IC50"
display_unit = "µM"
reading = 12.1

